Listed below: pKi values for each entry.
Biological target: Sodium-dependent dopamine transporter (Rattus norvegicus)
Sequence (P23977 whole entry): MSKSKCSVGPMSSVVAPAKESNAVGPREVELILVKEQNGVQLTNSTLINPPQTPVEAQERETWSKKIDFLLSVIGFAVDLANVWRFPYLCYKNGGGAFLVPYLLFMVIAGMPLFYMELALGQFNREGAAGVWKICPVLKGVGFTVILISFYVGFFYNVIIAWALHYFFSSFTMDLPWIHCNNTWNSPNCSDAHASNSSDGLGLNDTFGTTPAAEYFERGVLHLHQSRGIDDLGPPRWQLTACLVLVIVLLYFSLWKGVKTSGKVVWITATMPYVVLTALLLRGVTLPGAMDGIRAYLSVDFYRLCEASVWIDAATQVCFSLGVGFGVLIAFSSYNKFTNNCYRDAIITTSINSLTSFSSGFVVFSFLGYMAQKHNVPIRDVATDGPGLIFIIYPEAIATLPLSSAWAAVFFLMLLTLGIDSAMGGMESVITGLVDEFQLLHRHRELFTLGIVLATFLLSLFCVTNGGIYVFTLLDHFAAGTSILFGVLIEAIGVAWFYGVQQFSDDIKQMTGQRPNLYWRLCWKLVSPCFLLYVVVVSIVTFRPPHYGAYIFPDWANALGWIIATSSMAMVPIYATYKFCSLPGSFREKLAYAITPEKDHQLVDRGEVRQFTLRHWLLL
Experiment: Displacement of [3H]WIN-35428 from dopamine transporter (DAT)
// scale note: pKi = -log10(conc_M); give the bare number

Here are 6 compounds together with their reported answers.
CCOC(=O)C1(c2ccc(I)cc2)CCN(C)CC1 :: 5.49
CN1CCC(C#N)(c2cccc3ccccc23)CC1 :: 4.80
CN1CCC(C#N)(c2ccc3ccccc3c2)CC1 :: 5.63
CCOC(=O)C1(c2ccc(Cl)c(Cl)c2)CCN(C)CC1 :: 6.90
CCOC(=O)C1(c2ccc(Cl)cc2)CCN(C)CC1 :: 5.39
CCOC(=O)C1(c2ccc3ccccc3c2)CCN(C)CC1 :: 5.94

In the following, a different compound is considered.
Which pKi is listed for `CCOC(=O)C1(c2ccc(C)cc2)CCN(C)CC1` ?
4.91

====

Molecular target: Monoamine transporters; serotonin & dopamine (Rattus norvegicus) (UniProt P31652+P23977)
Sequence (P23977 whole entry, looked up): as the sequence (P23977 whole entry) above
Sequence (P31652 whole entry, looked up): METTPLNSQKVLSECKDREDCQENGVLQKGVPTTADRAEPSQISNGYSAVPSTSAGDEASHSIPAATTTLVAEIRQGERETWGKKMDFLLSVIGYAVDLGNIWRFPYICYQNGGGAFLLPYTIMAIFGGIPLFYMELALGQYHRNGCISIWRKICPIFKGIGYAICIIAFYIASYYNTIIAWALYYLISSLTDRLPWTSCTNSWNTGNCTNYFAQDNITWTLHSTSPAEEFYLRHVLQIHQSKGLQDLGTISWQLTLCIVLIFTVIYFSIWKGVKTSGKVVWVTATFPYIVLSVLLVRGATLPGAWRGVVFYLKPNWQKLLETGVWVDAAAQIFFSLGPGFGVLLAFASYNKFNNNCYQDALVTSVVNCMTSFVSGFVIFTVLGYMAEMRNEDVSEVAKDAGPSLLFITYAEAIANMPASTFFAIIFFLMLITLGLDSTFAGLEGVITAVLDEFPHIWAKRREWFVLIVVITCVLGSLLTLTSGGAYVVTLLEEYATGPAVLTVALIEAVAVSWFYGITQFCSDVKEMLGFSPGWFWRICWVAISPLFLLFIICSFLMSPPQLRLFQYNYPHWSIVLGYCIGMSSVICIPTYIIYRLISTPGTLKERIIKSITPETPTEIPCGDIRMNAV
Sequence (P31652 whole entry): as the sequence (P31652 whole entry, looked up) above
Assay: Relative affinity for dopamine and serotonin transporters
Format: protein assay
# note: boundary value 20 maps to criterion not met; Selectivity below it maps to criterion met

CCOC(=O)C1(c2ccc(C)cc2)CCN(C)CC1 :: criterion met
CCOC(=O)C1(c2ccc(I)cc2)CCN(C)CC1 :: criterion not met
Cc1ccc(C2(C#N)CCN(C)CC2)cc1 :: criterion met
CCOC(=O)C1(c2ccc(Cl)c(Cl)c2)CCN(C)CC1 :: criterion met
CN1CCC(C#N)(c2ccc(I)cc2)CC1 :: criterion met

Does this compound meet the criterion Selectivity < 20? `CN1CCC(C#N)(c2cccc3ccccc23)CC1`
criterion met

====

Target: UniProt P31652
Experiment: Displacement of [3H]paroxetine from serotonin transporter (SERT)
Ki for assorted compounds
All answers are understood in nM, so give the number only.

Example entries begin here.
CCOC(=O)C1(c2ccc(I)cc2)CCN(C)CC1 :: 21
CCOC(=O)C1(c2ccc(F)cc2)CCN(C)CC1 :: 308
CN1CCC(C#N)(c2ccc(F)cc2)CC1 :: 10100

Now for a further compound.
What is its Ki for UniProt P31652? Entry: `CN1CCC(C#N)(c2ccc3ccccc3c2)CC1`
125
